# System: UACC-62 melanoma
# protocolNotes: NCI tumour cell line growth inhibition, 48 h
Where a SMILES comes first, the peptide text is derived from it. The star is where a group is joined. Boc = CC(C)(C)OC(=O)*

>  <molecule>
CC(C)(C)OC(=O)NC(Cc1ccc(O)cc1)C(=O)NC(CCCCN)C(=O)O (stereo not drawn) (Boc-Tyr-Lys-OH; configuration not given here)

>  <TGI>
31.5 µM

$$$$
>  <molecule>
Cn1c(=O)[nH]c2nccnc2c1=O

>  <TGI>
> 10 µM

$$$$
>  <molecule>
CC12CCC(C(Br)(Br)C1=O)C2(C)C (stereo unspecified)

>  <TGI>
10.1 µM

$$$$
>  <molecule>
Cc1cc2ncn(C3CCCO3)c2cc1C (stereo unspecified)

>  <TGI>
> 100 µM

$$$$
>  <molecule>
Cc1ccc(S(=O)(=O)N/N=C2\CC3C4C=CC3C2C4)cc1 (stereo unspecified)

>  <TGI>
> 100 µM

$$$$
>  <molecule>
COc1ccc2[nH]c(-c3ccccc3)c(/C=C(\C#N)S(=O)(=O)c3ccccc3)c2c1

>  <TGI>
60.7 µM

$$$$
>  <molecule>
CCOP(=O)(O)C(Nc1ccc(N=Nc2ccccc2)cc1)c1ccc(C(Nc2ccc(N=Nc3ccccc3)cc2)P(=O)(O)OCC)cc1 (stereo unspecified)

>  <TGI>
35 µM

$$$$
>  <molecule>
Cc1ncc([N+](=O)[O-])n1CCNC(=O)CCCn1ccnc1[N+](=O)[O-]

>  <TGI>
> 100 µM

$$$$
>  <molecule>
Cc1cc(S(=O)(=O)n2ccnc2Oc2cccc(Cl)c2)c(SSc2cc(Cl)c(C)cc2S(=O)(=O)n2ccnc2Oc2cccc(Cl)c2)cc1Cl

>  <TGI>
> 53.2 µM

$$$$
>  <molecule>
O=c1c2ccc3cccc4c(=O)c5ccc6cccc1c6c5-c2c34

>  <TGI>
> 50 µM

$$$$
>  <molecule>
CCOC(=O)C1=C(NC(C)(C)C)OC/C1=N\NC(=O)Cc1ccccc1

>  <TGI>
> 100 µM

$$$$
>  <molecule>
CC(C)[C@]12O[C@H]1[C@@H]1O[C@@]13[C@@]1(C)CCC4=C(COC4=O)[C@@H]1C[C@@H]1O[C@@]13C2=O

>  <TGI>
0.0312 µM

$$$$
>  <molecule>
O=C(CC1=Nc2nnc(CCCCCCCc3nnc4n3C(=O)C(CC(=O)c3ccccc3)=N4)n2C1=O)c1ccccc1

>  <TGI>
> 100 µM

$$$$
>  <molecule>
O=C(CC1C(=O)Nc2ccccc2S1=O)Nc1ccccc1 (stereo unspecified)

>  <TGI>
> 100 µM

$$$$
>  <molecule>
Cc1ccc(C(=O)Nc2ccccc2)cc1N=NN(C)C

>  <TGI>
> 100 µM

$$$$
>  <molecule>
COc1cc(S(=O)(=O)Nc2nc(-c3ccc(N=Cc4cccs4)cc3)cs2)ccc1Cl

>  <TGI>
48.7 µM

$$$$
>  <molecule>
COc1ccc(S(=O)(=O)N/N=C\c2cc([N+](=O)[O-])cc(I)c2O)c(OC)c1OC

>  <TGI>
45.4 µM

$$$$
>  <molecule>
COc1ccc(/C=N/c2nc3cc4sc(/N=C/c5ccc(OC)cc5)nc4cc3s2)cc1

>  <TGI>
> 100 µM

$$$$
>  <molecule>
CC12OC1(C)C1C(=O)OCC1C2=O (stereo unspecified)

>  <TGI>
> 100 µM

$$$$
>  <molecule>
C1CSCCCSCCCSCCCSCCCSC1

>  <TGI>
> 100 µM

$$$$
>  <molecule>
COc1ccc(C(=O)c2cc(OC)c3c(c2)OCO3)cc1O

>  <TGI>
> 100 µM

$$$$

From: PubChem BioAssay (NCI)
